Values from PubChem BioAssay (NCATS)

Molecular target: Ubiquitin carboxyl-terminal hydrolase 1 (Homo sapiens) (UniProt O94782)
Sequence (O94782 whole entry, looked up): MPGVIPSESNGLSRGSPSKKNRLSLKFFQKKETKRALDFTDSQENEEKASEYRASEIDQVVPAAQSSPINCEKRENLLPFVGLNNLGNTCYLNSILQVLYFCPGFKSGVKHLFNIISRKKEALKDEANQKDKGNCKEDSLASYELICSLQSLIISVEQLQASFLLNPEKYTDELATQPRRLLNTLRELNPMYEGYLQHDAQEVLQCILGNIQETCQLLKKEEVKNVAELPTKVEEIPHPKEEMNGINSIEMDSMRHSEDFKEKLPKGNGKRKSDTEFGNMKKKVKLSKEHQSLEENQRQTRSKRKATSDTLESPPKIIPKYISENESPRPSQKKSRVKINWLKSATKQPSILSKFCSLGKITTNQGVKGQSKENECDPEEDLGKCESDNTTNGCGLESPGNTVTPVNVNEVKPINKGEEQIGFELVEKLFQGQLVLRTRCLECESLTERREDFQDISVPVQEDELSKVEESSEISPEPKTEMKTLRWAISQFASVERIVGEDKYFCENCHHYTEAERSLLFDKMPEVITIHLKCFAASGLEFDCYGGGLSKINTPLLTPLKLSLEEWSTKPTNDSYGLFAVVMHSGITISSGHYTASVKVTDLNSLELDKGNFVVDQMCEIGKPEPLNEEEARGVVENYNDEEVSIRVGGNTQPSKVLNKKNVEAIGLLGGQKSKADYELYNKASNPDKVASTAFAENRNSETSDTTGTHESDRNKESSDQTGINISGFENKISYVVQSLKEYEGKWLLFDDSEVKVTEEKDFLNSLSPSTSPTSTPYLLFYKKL
Experiment: Inhibitors of USP1/UAF1: Pilot qHTS (AID 504865); further: nearly all actives have a fitted effect of over 35% in size
Settings: purified USP1/UAF1, Ub-rhodamine cleavage fluorescence; series mostly up to 114 µM
Results filed as inconclusive are left out. Calls of active or inactive are those of the source. The call rests on the fitted dose curve; in most records, active means well fitted inhibition curve with a large enough effect; inconclusive means small, poorly fitted or top-dose-only effect; inactive means flat fitted curve, though single readings scatter.
# valid calls are active, inactive; nothing else

Check out these entries, answers already filled in.
molecule: CCCCCCCCCCCCC/C=C\[C@@H](O)[C@@H](N)CO
label-class: active
//
molecule: CC1O[C@@H](O[C@@H]2C(O)C[C@H](O[C@@H]3C(O)C[C@@H](OC4CC[C@@]5(C)C6CC(O)[C@@]7(C)C(C8=CC(=O)OC8)CC[C@@]7(O)C6CC[C@@H]5C4)OC3C)OC2C)CC(O)[C@H]1O (stereo not given in full)
label-class: inactive
//
molecule: N[C@H](CCC(=O)NCC(=O)O)C(=O)O
label-class: inactive

[Q] Check the results log: what was the call for CC(=O)OCCNC(=O)c1cccnc1 ?
[A] inactive

[Q] Check the results log: what was the call for c1ccc2cc(C3=NCCN3)ncc2c1 ?
[A] inactive

###

Target: DNA dC->dU-editing enzyme APOBEC-3G (Homo sapiens) (UniProt Q9HC16)
Sequence (Q9HC16 whole entry, looked up): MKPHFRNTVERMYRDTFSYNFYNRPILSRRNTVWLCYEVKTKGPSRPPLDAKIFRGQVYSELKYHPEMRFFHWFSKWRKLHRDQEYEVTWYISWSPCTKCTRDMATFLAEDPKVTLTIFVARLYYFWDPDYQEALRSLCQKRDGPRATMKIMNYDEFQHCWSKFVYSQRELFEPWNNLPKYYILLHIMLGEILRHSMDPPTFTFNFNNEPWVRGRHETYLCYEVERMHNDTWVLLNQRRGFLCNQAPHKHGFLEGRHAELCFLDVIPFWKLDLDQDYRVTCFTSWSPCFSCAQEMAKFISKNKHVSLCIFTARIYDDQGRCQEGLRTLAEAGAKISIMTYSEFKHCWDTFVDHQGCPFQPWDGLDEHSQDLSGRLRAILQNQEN
Assay: qHTS for inhibitors of Vif-A3G interactions: Validation (AID 588379)
Conditions: Vif-A3G protein interaction assay; series mostly up to 46.1 µM
Calls of active or inactive are those of the source. Calls come from the whole dose curve; as a rule, active = well fitted inhibition curve with a large enough effect; inconclusive = small, poorly fitted or top-dose-only effect; inactive = flat fitted curve, though single readings scatter.
observable: outcome

Sample records with outcome:
mol-smiles: C[C@@H](CC(=O)O)[C@@H](N)C(=O)O
outcome: inactive
--
mol-smiles: N[C@H](C(=O)O)c1nn[nH]n1
outcome: inactive
--
mol-smiles: CCN(Cc1ccncc1)C(=O)[C@@H](CO)c1ccccc1
outcome: inactive
--
mol-smiles: NCCCNCCCCN(CCCN)/[N+]([O-])=N/O
outcome: inactive
--
mol-smiles: O=C(O)/C=C1\CCCc2ccccc2[C@H]1O
outcome: inactive
--
mol-smiles: CNc1ncnc2c1ncn2[C@H]1C[C@H](OP(=O)(O)O)[C@H](COP(=O)(O)O)O1
outcome: inactive
--
mol-smiles: CC#C[C@]1(O)CC[C@H]2[C@@H]3CCC4=CC(=O)CCC4=C3[C@H](c3ccc(N(C)C)cc3)C[C@@]21C
outcome: inactive
--
mol-smiles: COc1cc(N)c(Cl)cc1C(=O)CCC1CCN(CCNS(C)(=O)=O)CC1
outcome: inactive
--
mol-smiles: C[C@@H](C(=O)O)c1ccc(-c2ccccc2)c(F)c1
outcome: inactive
--
mol-smiles: NC1(C(=O)O)C[C@@H](C(=O)O)[C@H](C(=O)O)C1
outcome: inactive

[Q] What outcome value was documented for this compound, C[C@@H](NCc1cc(Br)cc2[nH]c(=O)c(=O)[nH]c12)P(=O)(O)O ?
[A] inactive

###

Assay: Secretion counterscreen for inhibitors of the SERCaMP assay screened against the NCATS CANVASS Library (AID 1347390);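 further: light from luciferase secreted into medium read as a measure of general secretion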
Conditions: SH-SY5Y constitutive GLuc secretion, luminescence, 20 h; series mostly up to 76.6 µM
Results filed as inconclusive are left out. Active and inactive are the calls of the source. Calls follow the shape of the dose curve; as a rule, active = well fitted inhibition curve with a large enough effect; inconclusive = small, poorly fitted or top-dose-only effect; inactive = no such curve, though single readings can be large or run the other way.
# valid calls are active, inactive; nothing else

Check out these entries, answers already filled in.
compound: OCc1ccc2ocnc2c1
label-class: inactive
--
compound: Cc1cc(O)cc2oc(C[C@H](C)O)cc(=O)c12
label-class: inactive
--
compound: CCC1=C2CCCN3C(=O)O[C@H]([C@H]1OC(C)=O)[C@H]23
label-class: inactive
--
compound: CC[C@@H]1C[C@@]2(CC)OC(=O)[C@@]3(CC)OC(=O)[C@@H]1[C@@H]23
label-class: inactive
--
compound: C=C1C(=O)C[C@H]2C[C@@H]1[C@]2(C)CCC=C(C)C
label-class: inactive
--
compound: C[C@@H]1O[C@@H](Oc2c(-c3ccc(O)cc3)oc3cc(O)cc(O)c3c2=O)[C@H](O)[C@H](O)[C@H]1O
label-class: inactive
--
compound: C/C=C1/CC[C@@H]2c3[nH]c4ccccc4c3CCN2C1
label-class: inactive
--
compound: CC1C(=O)C23CCC1C[C@]21O[C@@H]2C(C)(C)C=CC(=O)[C@@]23COC1=O (some centres not stated)
label-class: inactive

[Q] Check the results log: what was the call for C=C1/C=C\C(CCC)=C\c2csc(n2)C(C)NC(=O)C[C@@]2(CC(=O)O)CCC(=C)[C@H](C1)S2 (some centres not stated) ?
[A] inactive

[Q] Check the results log: what was the call for CC1C(=O)C23CCC1C[C@@]21O[C@H]2C(C)(C)C=CC(=O)[C@@]23COC1=O (some centres not stated) ?
[A] inactive

[Q] Check the results log: what was the call for O=Cc1ccc2n1C[C@@]1(C[C@H](O)[C@H](O)CO1)OC2 ?
[A] inactive

[Q] Check the results log: what was the call for C=C1C[C@@]23C=CC(=O)[C@@](C)(CCC(=O)Nc4c(O)ccc(C(=O)O)c4O)C2C[C@@H]1C(O)C3 (some centres not stated) ?
[A] inactive

[Q] Check the results log: what was the call for C[C@@]12C[C@@H](C[C@H]3C(=O)O[C@@H](c4ccoc4)[C@H](OC(=O)c4ccccc4)[C@@H]31)OC2=O ?
[A] inactive

[Q] Check the results log: what was the call for COC1C(O)C(OC(N)=O)C(Oc2ccc3c(O)c(NC(=O)c4ccc(O)c(CC=C(C)C)c4)c(=O)oc3c2C)OC1(C)C (configuration not stated) ?
[A] active

[Q] Check the results log: what was the call for C=C1C(=O)O[C@H]2[C@H]1CC/C(CO)=C\CC[C@@]1(C)O[C@@H]21 ?
[A] active

[Q] Check the results log: what was the call for C[C@@H]1O[C@@H](O[C@@H]2[C@@H](O)[C@H](O[C@@H]3[C@@H](O)[C@@H](O)C(O[C@H]4[C@H](OC(=O)[C@]56CCC(C)(C)C[C@H]5C5=CCC7[C@@]8(C)C[C@H](O)[C@H](O[C@@H]9C[C@H](CO)[C@@H](O)[C@H](O)[C@H]9O)[C@@](C)(CO)C8[C@H](O)C[C@@]7(C)[C@]5(C)CC6)OC[C@H](O)[C@@H]4O)O[C@H]3C)OC[C@H]2O)[C@H](O)[C@H](O)[C@H]1O (some centres not stated) ?
[A] inactive

[Q] Check the results log: what was the call for CN1C(=O)[C@]23SS[C@@]1(C)C(=O)N2[C@H]1Nc2ccccc2[C@]1(c1c[nH]c2ccccc12)[C@@H]3O ?
[A] active
